B1: Spectrin alpha chain, erythrocytic 1, residues 979 to 1036; numbered along this chain, P02549 (parent)
chain: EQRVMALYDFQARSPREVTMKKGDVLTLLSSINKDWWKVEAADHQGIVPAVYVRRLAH

# Variants of: B1
# assay-summary: abundance fitness (aPCA) (normalised: wild type 0, dead -1); higher = more abundant; growth selection in yeast, the domain comes from the species named
# run-conditions: Homo sapiens
Answer false if abundance fitness is under -0.6, and true if it is -0.6 or more.

## Input Record `A6N` ; criterion: abundance fitness no lower than -0.6. Met?
## Output true

## Input Record `G46C` ; criterion: abundance fitness no lower than -0.6. Met?
## Output true

## Input Record `R3V` ; criterion: abundance fitness no lower than -0.6. Met?
## Output false

## Input Record `V25T` ; criterion: abundance fitness no lower than -0.6. Met?
## Output false

## Input Record `K22W` ; criterion: abundance fitness no lower than -0.6. Met?
## Output false

## Input Record `A57D` ; criterion: abundance fitness no lower than -0.6. Met?
## Output true

## Input Record `K22H` ; criterion: abundance fitness no lower than -0.6. Met?
## Output true

## Input Record `V53A` ; criterion: abundance fitness no lower than -0.6. Met?
## Output false

## Input Record `K21L` ; criterion: abundance fitness no lower than -0.6. Met?
## Output false

## Input Record `Q45R` ; criterion: abundance fitness no lower than -0.6. Met?
## Output true

## Input Record `S30G` ; criterion: abundance fitness no lower than -0.6. Met?
## Output true

## Input Record `V51A` ; criterion: abundance fitness no lower than -0.6. Met?
## Output true

## Input Record `D43H` ; criterion: abundance fitness no lower than -0.6. Met?
## Output true

## Input Record `N33W` ; criterion: abundance fitness no lower than -0.6. Met?
## Output false

## Input Record `W37A` ; criterion: abundance fitness no lower than -0.6. Met?
## Output false

## Input Record `K38Q` ; criterion: abundance fitness no lower than -0.6. Met?
## Output true

## Input Record `E17R` ; criterion: abundance fitness no lower than -0.6. Met?
## Output false

## Input Record `V51D` ; criterion: abundance fitness no lower than -0.6. Met?
## Output true

## Input Record `V4A` ; criterion: abundance fitness no lower than -0.6. Met?
## Output false

## Input Record `V25K` ; criterion: abundance fitness no lower than -0.6. Met?
## Output true

## Input Record `V51S` ; criterion: abundance fitness no lower than -0.6. Met?
## Output true

## Input Record `P15Y` ; criterion: abundance fitness no lower than -0.6. Met?
## Output true

## Input Record `A42R` ; criterion: abundance fitness no lower than -0.6. Met?
## Output true

## Input Record `F10S` ; criterion: abundance fitness no lower than -0.6. Met?
## Output false

## Input Record `R13L` ; criterion: abundance fitness no lower than -0.6. Met?
## Output false

## Input Record `K21V` ; criterion: abundance fitness no lower than -0.6. Met?
## Output false

## Input Record `K21I` ; criterion: abundance fitness no lower than -0.6. Met?
## Output false

## Input Record `K21R` ; criterion: abundance fitness no lower than -0.6. Met?
## Output true

## Input Record `M5Q` ; criterion: abundance fitness no lower than -0.6. Met?
## Output true

## Input Record `P15E` ; criterion: abundance fitness no lower than -0.6. Met?
## Output true

## Input Record `E17Y` ; criterion: abundance fitness no lower than -0.6. Met?
## Output true

## Input Record `K21H` ; criterion: abundance fitness no lower than -0.6. Met?
## Output true

## Input Record `A42L` ; criterion: abundance fitness no lower than -0.6. Met?
## Output true

## Input Record `V4K` ; criterion: abundance fitness no lower than -0.6. Met?
## Output false

## Input Record `V25H` ; criterion: abundance fitness no lower than -0.6. Met?
## Output true

## Input Record `V25L` ; criterion: abundance fitness no lower than -0.6. Met?
## Output false

## Input Record `V25S` ; criterion: abundance fitness no lower than -0.6. Met?
## Output false

## Input Record `S14T` ; criterion: abundance fitness no lower than -0.6. Met?
## Output true

## Input Record `S31G` ; criterion: abundance fitness no lower than -0.6. Met?
## Output true

## Input Record `E40A` ; criterion: abundance fitness no lower than -0.6. Met?
## Output true

## Input Record `F10I` ; criterion: abundance fitness no lower than -0.6. Met?
## Output true

## Input Record `E17D` ; criterion: abundance fitness no lower than -0.6. Met?
## Output false

## Input Record `M5E` ; criterion: abundance fitness no lower than -0.6. Met?
## Output true

## Input Record `Q11T` ; criterion: abundance fitness no lower than -0.6. Met?
## Output true

## Input Record `I47F` ; criterion: abundance fitness no lower than -0.6. Met?
## Output true

## Input Record `S14G` ; criterion: abundance fitness no lower than -0.6. Met?
## Output true

## Input Record `Q2L` ; criterion: abundance fitness no lower than -0.6. Met?
## Output true

## Input Record `A6K` ; criterion: abundance fitness no lower than -0.6. Met?
## Output false

## Input Record `L26Q` ; criterion: abundance fitness no lower than -0.6. Met?
## Output true

## Input Record `M20W` ; criterion: abundance fitness no lower than -0.6. Met?
## Output false

## Input Record `D43T` ; criterion: abundance fitness no lower than -0.6. Met?
## Output true

## Input Record `Q45G` ; criterion: abundance fitness no lower than -0.6. Met?
## Output false

## Input Record `I47A` ; criterion: abundance fitness no lower than -0.6. Met?
## Output true

## Input Record `W36D` ; criterion: abundance fitness no lower than -0.6. Met?
## Output true

## Input Record `A6E` ; criterion: abundance fitness no lower than -0.6. Met?
## Output true

## Input Record `V53L` ; criterion: abundance fitness no lower than -0.6. Met?
## Output true

## Input Record `L26M` ; criterion: abundance fitness no lower than -0.6. Met?
## Output true

## Input Record `E40S` ; criterion: abundance fitness no lower than -0.6. Met?
## Output true

## Input Record `A41E` ; criterion: abundance fitness no lower than -0.6. Met?
## Output false

## Input Record `N33L` ; criterion: abundance fitness no lower than -0.6. Met?
## Output false

## Input Record `D35V` ; criterion: abundance fitness no lower than -0.6. Met?
## Output true

## Input Record `M20K` ; criterion: abundance fitness no lower than -0.6. Met?
## Output true

## Input Record `A41N` ; criterion: abundance fitness no lower than -0.6. Met?
## Output true

## Input Record `L29V` ; criterion: abundance fitness no lower than -0.6. Met?
## Output true

## Input Record `P15C` ; criterion: abundance fitness no lower than -0.6. Met?
## Output true

## Input Record `A57K` ; criterion: abundance fitness no lower than -0.6. Met?
## Output true

## Input Record `R13Q` ; criterion: abundance fitness no lower than -0.6. Met?
## Output true

## Input Record `Q45L` ; criterion: abundance fitness no lower than -0.6. Met?
## Output false

## Input Record `W37M` ; criterion: abundance fitness no lower than -0.6. Met?
## Output true
